Reference for the values: BigSolDB 2.1

Conditions: in ethyl formate, 288.2 K
Measured property: solubility (mole fraction)

C=C(C)[C@@H]1CC[C@]2(C(=O)O)CC[C@]3(C)[C@H](CC[C@@H]4[C@@]5(C)CC[C@H](O)C(C)(C)[C@@H]5CC[C@]43C)[C@@H]12    0.000272

###

Settings: in isopropanol, 288.2 K
Measured property: solubility (mole fraction)

C=C(C)[C@@H]1CC[C@]2(C(=O)O)CC[C@]3(C)[C@H](CC[C@@H]4[C@@]5(C)CC[C@H](O)C(C)(C)[C@@H]5CC[C@]43C)[C@@H]12    0.00092

###

Conditions: in n-propanol, 298.2 K
Measured property: solubility (mole fraction)

C=C(C)[C@@H]1CC[C@]2(C(=O)O)CC[C@]3(C)[C@H](CC[C@@H]4[C@@]5(C)CC[C@H](O)C(C)(C)[C@@H]5CC[C@]43C)[C@@H]12    0.00178
